kon listing for selected binders.
# TARGET OF ASSAY: T1, VEGF(8-109) (UniProt P15692 214-315)
# T1 construct: range 8-109; Covalently coupled to the BIACORE chip (EDC/NHS); also called vascular endothelial growth factor
# T1 sequence (looked up): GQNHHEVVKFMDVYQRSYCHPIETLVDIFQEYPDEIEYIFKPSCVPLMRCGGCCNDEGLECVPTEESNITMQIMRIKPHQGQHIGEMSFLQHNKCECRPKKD
# METHOD NOTES: SPR (BIACORE-2000), Fab injected over immobilised VEGF(8-109), 25 C
# Description: BIACORE™ Analysis: The VEGF-binding affinities of Fab fragments were calculated from association and dissociation rate constants measured using a BIACORE™-2000 surface plasmon resonance system (BIACORE™, Inc., Piscataway, N.J.). A biosensor chip was activated for covalent coupling of VEGF using N-ethyl-N′-(3-dimethylaminopropyl)-carbodiimide hydrochloride (EDC) and N-hydroxysuccinimide (NHS) according to the supplier's (BIACORE™, Inc., Piscataway, N.J.) instructions. […]
Reply numerically in M⁻¹ s⁻¹, unit not repeated.

Give its kon value. Item: Y0239-19 Fab (Fab, V domains shown, also called insertion variant with the VNERK motif) VH: EVQLVESGGGLVQPGGSLRLSCAASGYTFTNYGMNWVRQAPGKGLEWVGWINTYTGEPTYAADFKRRFTFSLDTSKSTAYLQMNSLRAEDTAVYYCAKYPHYYVNERKSHWYFDVWGQGTL VL: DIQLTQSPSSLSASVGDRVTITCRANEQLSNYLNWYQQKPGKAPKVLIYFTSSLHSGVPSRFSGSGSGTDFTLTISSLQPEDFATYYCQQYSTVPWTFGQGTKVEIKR 36000

Give its kon value. Item: Y0239-9 Fab (Fab, V domains shown, Only three residues stand in place of G104, although the library was designed with four or five) VH: EVQLVESGGGLVQPGGSLRLSCAASGYTFTNYGMNWVRQAPGKGLEWVGWINTYTGEPTYAADFKRRFTFSLDTSKSTAYLQMNSLRAEDTAVYYCAKYPHYYLGESSHWYFDVWGQGTL VL: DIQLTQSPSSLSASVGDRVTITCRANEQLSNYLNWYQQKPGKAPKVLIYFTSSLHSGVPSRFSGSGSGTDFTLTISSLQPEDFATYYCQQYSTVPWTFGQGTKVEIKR 39700

Give its kon value. Item: Y0241-7 Fab (Fab, V domains shown, Clone from library YC-86, made on the Y0192 template; The text names point mutations only at T28 and F29; The printed stretch ends in GIN, so residue 34 may also differ from the parent; this change is not applied here) VH: EVQLVESGGGLVQPGGSLRLSCAASGYDWTNYGINWVRQAPGKGLEWVGWINTYTGEPTYAADFKRRFTFSLDTSKSTAYLQMNSLRAEDTAVYYCAKYPHYYGSSHWYFDVWGQGTL VL: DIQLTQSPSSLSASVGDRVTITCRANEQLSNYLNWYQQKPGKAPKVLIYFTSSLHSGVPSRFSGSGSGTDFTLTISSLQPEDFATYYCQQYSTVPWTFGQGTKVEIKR 46000
